This document collects Ki values reported for 5-hydroxytryptamine receptor 7 (Homo sapiens, UniProt P34969).
MEASURED_PROPERTY: Ki (µM)

O=S(=O)(c1ccc2ncccc2c1)n1cc(C2=CCNCC2)c2ccccc21 6.66
COc1ccc2c(c1)c(C1=CCNCC1)cn2S(=O)(=O)c1cncc2ccccc12 7.83
COc1ccc2c(c1)c(C1=CCNCC1)cn2S(=O)(=O)c1ccc2cccnc2c1 6.25
O=S(=O)(c1ccc2cccnc2c1)n1cc(C2=CCNCC2)c2cc(Cl)ccc21 7.32
COc1ccc2c(c1)c(C1=CCNCC1)cn2S(=O)(=O)c1cccc2ncccc12 2.35

----------
# EXPERIMENTAL_TARGET: Cytochrome P450 2C19 (Homo sapiens, UniProt P33261)
# Sequence (P33261 whole entry): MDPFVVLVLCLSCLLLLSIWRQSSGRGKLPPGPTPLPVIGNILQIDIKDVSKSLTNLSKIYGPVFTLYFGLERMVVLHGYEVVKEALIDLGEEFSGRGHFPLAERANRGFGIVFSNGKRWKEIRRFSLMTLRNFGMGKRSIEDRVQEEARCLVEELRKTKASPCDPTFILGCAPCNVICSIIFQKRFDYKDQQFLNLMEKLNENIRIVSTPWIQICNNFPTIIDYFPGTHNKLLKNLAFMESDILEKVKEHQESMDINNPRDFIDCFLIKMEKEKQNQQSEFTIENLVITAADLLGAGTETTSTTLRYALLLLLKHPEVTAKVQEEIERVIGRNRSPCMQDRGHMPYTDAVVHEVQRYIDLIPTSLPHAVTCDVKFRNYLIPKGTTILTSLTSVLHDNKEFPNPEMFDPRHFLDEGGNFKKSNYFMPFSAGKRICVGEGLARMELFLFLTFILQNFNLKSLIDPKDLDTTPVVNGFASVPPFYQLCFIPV
Quick list: IC50 per entry.
MEASURED_PROPERTY: IC50

COc1ccc2c(c1)c(C1=CCNCC1)cn2S(=O)(=O)c1ccc2cccnc2c1 > 100 µM
COc1ccc2c(c1)c(C1=CCNCC1)cn2S(=O)(=O)c1cncc2ccccc12 > 100 µM

----------
This document collects Ki values reported for UniProt P28223.
Sequence (P28223 whole entry): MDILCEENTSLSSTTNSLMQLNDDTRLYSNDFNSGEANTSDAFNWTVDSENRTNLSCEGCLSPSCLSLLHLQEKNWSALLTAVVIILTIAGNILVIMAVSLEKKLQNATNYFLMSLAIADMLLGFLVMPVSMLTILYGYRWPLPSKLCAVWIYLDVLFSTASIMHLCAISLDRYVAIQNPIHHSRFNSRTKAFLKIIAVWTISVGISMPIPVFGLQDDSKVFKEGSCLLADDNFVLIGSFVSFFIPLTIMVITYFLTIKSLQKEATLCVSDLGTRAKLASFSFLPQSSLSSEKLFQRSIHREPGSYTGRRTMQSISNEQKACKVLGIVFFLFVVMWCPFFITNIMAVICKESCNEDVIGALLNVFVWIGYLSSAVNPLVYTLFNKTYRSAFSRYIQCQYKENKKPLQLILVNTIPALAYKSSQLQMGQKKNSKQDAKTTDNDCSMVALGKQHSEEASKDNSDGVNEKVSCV
MEASURED_PROPERTY: Ki

O=S(=O)(c1ccc2cccnc2c1)n1cc(C2=CCNCC2)c2cc(Cl)ccc21 2590 nM
COc1ccc2c(c1)c(C1=CCNCC1)cn2S(=O)(=O)c1cccc2ncccc12 1550 nM
COc1ccc2c(c1)c(C1=CCNCC1)cn2S(=O)(=O)c1cncc2ccccc12 3350 nM

Value source: ChEMBL document CHEMBL4425120
